molecular target: FGFR3 (UniProt P22607); assay: phosphorylation enrichment, bacterial display (enrichment ratio); higher = better substrate or ligand; peptides without Tyr show the background;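 note: 11-residue human phosphosite peptides and single-mutation variants displayed on the E. coli surface, counted by deep sequencing, each peptide's frequency after selection divided by its frequency in the unselected input library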;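 note: frequency after pTyr selection over input frequency; kinase dosed for 20-30% of maximal phosphorylation in three min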
Sequence (P22607 whole entry, looked up): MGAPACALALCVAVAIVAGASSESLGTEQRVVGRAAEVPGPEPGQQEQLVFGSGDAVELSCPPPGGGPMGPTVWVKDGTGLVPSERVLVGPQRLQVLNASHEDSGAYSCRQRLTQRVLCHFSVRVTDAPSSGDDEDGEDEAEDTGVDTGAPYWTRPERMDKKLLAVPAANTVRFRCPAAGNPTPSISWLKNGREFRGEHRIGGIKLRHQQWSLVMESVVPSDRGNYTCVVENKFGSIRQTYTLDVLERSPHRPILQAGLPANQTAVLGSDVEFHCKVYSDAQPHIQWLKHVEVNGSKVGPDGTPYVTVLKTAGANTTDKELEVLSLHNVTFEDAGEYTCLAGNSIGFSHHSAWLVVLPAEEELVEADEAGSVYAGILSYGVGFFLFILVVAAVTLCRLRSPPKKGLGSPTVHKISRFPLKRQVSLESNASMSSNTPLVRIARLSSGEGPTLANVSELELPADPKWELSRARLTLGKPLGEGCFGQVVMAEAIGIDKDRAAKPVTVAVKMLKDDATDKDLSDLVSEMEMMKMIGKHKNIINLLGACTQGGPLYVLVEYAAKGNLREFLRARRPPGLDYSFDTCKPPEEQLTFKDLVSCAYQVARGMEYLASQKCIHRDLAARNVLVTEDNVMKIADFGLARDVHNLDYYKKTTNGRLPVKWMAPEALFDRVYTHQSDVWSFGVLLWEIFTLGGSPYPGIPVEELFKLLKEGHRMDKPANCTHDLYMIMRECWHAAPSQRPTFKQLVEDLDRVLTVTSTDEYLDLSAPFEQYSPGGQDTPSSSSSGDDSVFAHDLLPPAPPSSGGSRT
We'd kindly ask you to apply these phosphorylation enrichment classes: bottom bin (below 0.6), middle bin (0.6 to below 1), top bin (1 or more)

- sequence-content: "HTEGEYSSLEH [IDH3B_Y171_Q166H]"
  group-label: "middle bin"

Lab note: sort WASGIYFVPKG [APBB1IP_Y340_R335W_YF] into the matching phosphorylation enrichment band. top bin

Band for KLFRVYCDMNT [FGB_Y269_P265L_YF] ? middle bin

Bin? NFDRVYIYHLR [MYOF_Y1137] middle bin

---

biological target: EPHB1 (UniProt P54762); experiment: phosphorylation enrichment, bacterial display (enrichment ratio); higher = better substrate or ligand; peptides without Tyr show the background
Sequence (P54762 whole entry, looked up): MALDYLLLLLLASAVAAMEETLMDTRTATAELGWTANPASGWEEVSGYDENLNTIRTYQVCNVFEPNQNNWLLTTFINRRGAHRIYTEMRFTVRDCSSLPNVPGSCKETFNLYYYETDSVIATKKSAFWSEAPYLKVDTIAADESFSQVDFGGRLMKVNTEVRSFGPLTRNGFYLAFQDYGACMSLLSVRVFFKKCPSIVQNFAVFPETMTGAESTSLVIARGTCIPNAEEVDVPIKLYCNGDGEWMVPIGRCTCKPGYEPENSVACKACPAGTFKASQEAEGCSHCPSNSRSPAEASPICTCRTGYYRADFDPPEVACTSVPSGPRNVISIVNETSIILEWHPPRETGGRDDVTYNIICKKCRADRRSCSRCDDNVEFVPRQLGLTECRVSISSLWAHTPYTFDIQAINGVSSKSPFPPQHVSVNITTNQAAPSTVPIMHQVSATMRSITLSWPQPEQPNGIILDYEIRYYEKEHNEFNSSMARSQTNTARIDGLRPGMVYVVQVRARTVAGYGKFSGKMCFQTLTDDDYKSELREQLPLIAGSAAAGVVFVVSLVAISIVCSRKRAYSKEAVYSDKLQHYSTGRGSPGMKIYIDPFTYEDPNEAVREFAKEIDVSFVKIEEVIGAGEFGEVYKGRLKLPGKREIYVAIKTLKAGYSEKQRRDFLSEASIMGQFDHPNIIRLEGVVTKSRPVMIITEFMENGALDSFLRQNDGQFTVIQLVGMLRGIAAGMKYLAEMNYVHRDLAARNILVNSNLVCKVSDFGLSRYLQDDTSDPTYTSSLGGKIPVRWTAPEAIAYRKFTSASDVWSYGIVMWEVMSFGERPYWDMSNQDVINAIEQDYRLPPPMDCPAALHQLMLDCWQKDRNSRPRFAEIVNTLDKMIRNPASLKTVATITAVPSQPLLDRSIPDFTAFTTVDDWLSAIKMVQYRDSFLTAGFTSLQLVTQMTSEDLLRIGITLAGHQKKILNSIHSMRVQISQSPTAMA
Binary classification by phosphorylation enrichment, with 0.5 as an inclusive lower bound for 1; all other cases are 0.

Record excerpt, results attached:
- sequence-content: "PQIVNYSPDCI [LDHB_Y128_K127N]"
  group-label: 1
- sequence-content: "ASRKYYAMKIL [AKT3_Y174_G171R]"
  group-label: 0

State whether the measured phosphorylation enrichment reaches 0.5, counting equality as reaching it, for VTAALYGCLYE [BTD_Y536_R538C] 1

Given the entry ATKNDYWAMLA [WWOX_Y287_P282A] , answer whether its phosphorylation enrichment meets or surpasses 0.5. 1

Does FFVVEYRDQKP [MUC17_Y4332_YF] have a reported phosphorylation enrichment of at least 0.5? 1

---

sequences and their reported phosphorylation enrichment
test system: Fer (mouse); assay: phosphorylation enrichment, bacterial display (enrichment ratio); higher = better substrate or ligand; peptides without Tyr show the background

- sequence-content: "HNVPIYEGYGL [ACTA1_Y168_A172G]"
  phosphorylation enrichment: 27.9
- sequence-content: "HDHYGYRQSVT [CD55_Y245_R240H]"
  phosphorylation enrichment: 0.743
- sequence-content: "GLAELYEFKKK [CKAP5_Y1854_YF]"
  phosphorylation enrichment: 0.43
- sequence-content: "SLHPGYNFRFA [P2RX7_Y291_Y288H_YF]"
  phosphorylation enrichment: 0.434
- sequence-content: "DFFDLYGGEKF [PTPN11_Y66_YF]"
  phosphorylation enrichment: 0.682

Record ISIFHCAKGQP [MPZ_Y82_Y82C] , field phosphorylation enrichment: 0.643

# sequence RNIQQHNSFVS [PRKAR1A_Y373_Y373H] ; its phosphorylation enrichment = 0.379

---

biological target: EPHB1 (UniProt P54762); assay: phosphorylation enrichment, bacterial display (enrichment ratio); higher = better substrate or ligand; peptides without Tyr show the background
metric-name: phosphorylation enrichment
Form rule: numeric answer, no unit written next to it.

- sequence-content: "EGQKIYIDDNN [PIP4K2A_Y246]"
  metric-name: "phosphorylation enrichment"
  measured-result: 0.586
- sequence-content: "RNIQQHNSFVS [PRKAR1A_Y373_Y373H]"
  metric-name: "phosphorylation enrichment"
  measured-result: 0.604

Entry RQNNSYTCYTA [SLC20A2_Y386_R382Q] , phosphorylation enrichment reported as 0.597

Record EEGENYQKGEQ [CHGB_Y173_R178Q] , field phosphorylation enrichment: 0.592

For this sequence ( MECLPYGSLRD [JAK2_Y934_Y931C] ), measured phosphorylation enrichment is 0.598

Sample QHVPDYRQNGF [PCDHGA1_Y890_V894G_YF] ; phosphorylation enrichment observed: 0.589

Reported phosphorylation enrichment of REENGYNTFAS [FGF10_Y161_I156R_YF] : 0.617

---

target: Jak2 (UniProt O60674); test: phosphorylation enrichment, bacterial display (enrichment ratio); higher = better substrate or ligand; peptides without Tyr show the background
Sequence (O60674 whole entry, looked up): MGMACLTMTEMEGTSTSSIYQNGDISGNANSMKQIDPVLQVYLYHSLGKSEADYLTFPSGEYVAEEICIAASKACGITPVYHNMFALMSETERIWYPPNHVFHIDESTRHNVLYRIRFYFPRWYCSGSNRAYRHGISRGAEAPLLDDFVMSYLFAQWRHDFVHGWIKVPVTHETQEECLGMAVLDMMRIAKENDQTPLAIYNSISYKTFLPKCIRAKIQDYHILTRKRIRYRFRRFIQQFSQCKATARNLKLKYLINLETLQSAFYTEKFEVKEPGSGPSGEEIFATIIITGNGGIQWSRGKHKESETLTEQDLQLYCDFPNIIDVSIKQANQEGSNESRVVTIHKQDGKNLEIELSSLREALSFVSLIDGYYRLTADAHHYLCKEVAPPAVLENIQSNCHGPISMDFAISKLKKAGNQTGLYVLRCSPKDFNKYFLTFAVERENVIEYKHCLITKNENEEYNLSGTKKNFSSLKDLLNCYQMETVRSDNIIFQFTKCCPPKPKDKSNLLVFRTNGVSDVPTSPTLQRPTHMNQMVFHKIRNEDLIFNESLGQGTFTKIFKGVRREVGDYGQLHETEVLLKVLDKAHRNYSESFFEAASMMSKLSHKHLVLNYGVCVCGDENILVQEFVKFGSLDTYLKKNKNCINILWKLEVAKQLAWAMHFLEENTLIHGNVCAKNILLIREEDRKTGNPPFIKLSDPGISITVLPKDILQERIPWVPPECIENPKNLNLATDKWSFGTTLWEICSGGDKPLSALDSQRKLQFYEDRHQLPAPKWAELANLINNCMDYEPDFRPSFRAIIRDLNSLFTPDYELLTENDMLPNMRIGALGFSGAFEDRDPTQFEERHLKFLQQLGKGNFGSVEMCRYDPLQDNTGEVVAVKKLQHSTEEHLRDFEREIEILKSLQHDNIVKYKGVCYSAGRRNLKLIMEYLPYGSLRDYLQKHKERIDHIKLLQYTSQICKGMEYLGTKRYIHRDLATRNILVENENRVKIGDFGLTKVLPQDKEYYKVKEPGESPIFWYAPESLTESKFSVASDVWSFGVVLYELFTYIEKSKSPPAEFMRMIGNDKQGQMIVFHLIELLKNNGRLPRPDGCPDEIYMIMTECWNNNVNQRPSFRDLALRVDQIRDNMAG
metric-name: phosphorylation enrichment
Please respond with just the number, no unit label.

Worked cases, answers included:
- sequence-content: "AKLDEYIAIAK [RCOR3_Y46]"
  phosphorylation enrichment: 0.79
- sequence-content: "EKKDVYKAGEQ [CFH_Y1008]"
  phosphorylation enrichment: 0.555
- sequence-content: "PQAVTYAKVKH [LILRB4_Y360]"
  phosphorylation enrichment: 0.577
- sequence-content: "MECLPYGSLRD [JAK2_Y934_Y931C]"
  phosphorylation enrichment: 1.07
- sequence-content: "LESETYRRLLD [KRT12_Y429_I426S]"
  phosphorylation enrichment: 1.07
- sequence-content: "ARRMEYLASQK [FGFR2_Y616_G613R]"
  phosphorylation enrichment: 0.367

In plain terms, NTILLYHIMAW [GPR143_Y157_S152N] has a documented phosphorylation enrichment of 2.07

Given item LFRFGYANTSE [SI_Y1233_C1229Y_YF] , the value recorded as its phosphorylation enrichment is 0.807

Lab note: EYGRRYGFSRQ [CCDC93_Y209] gave phosphorylation enrichment of 0.475

phosphorylation enrichment in this record for TFLRTYTDAMQ [TSPAN7_Y124] : 0.726

Item: DLAHKYHGGGG [HBB_Y146_A141D] | phosphorylation enrichment: 0.545

Form: sequence = MDNQEYKDAYK [BRDT_Y331] ; phosphorylation enrichment = 0.901

Record DWRQEYVLNEP [TGM1_Y267_S272P] , field phosphorylation enrichment: 0.988

// phosphorylation enrichment value for SVTCTYSPAIN [TP53_Y126_L130I] : 1.37

For NTDETYCIDNE [TUBB2B_Y200] the sequence record lists phosphorylation enrichment as 1.53

Lab note: GNLQEYLTRHV [TGFBR2_Y336] gave phosphorylation enrichment of 0.581

---

biological target: FGFR3 (UniProt P22607); assay: phosphorylation enrichment, bacterial display (enrichment ratio); higher = better substrate or ligand; peptides without Tyr show the background
Dear colleague, classification is by phosphorylation enrichment, with ranges listed here: range A: < 0.6; range B: ≥ 0.6 and < 0.9; range C: ≥ 0.9

Look over these answered cases.
- sequence-content: "DNEYAYLKAII [HNF4A_Y288]"
  target-or-system: "FGFR3 (UniProt P22607)"
  group-label: "range C"
- sequence-content: "ADKAAYLQSMN [MYH2_Y389_L393M]"
  target-or-system: "FGFR3 (UniProt P22607)"
  group-label: "range B"
- sequence-content: "GRTGHYLCNAC [GATA1_Y223_D218G]"
  target-or-system: "FGFR3 (UniProt P22607)"
  group-label: "range A"
- sequence-content: "NIQKKYFRAIL [CHD7_Y1217_YF]"
  target-or-system: "FGFR3 (UniProt P22607)"
  group-label: "range A"
- sequence-content: "SVTCTSSPALN [TP53_Y126_Y126S]"
  target-or-system: "FGFR3 (UniProt P22607)"
  group-label: "range B"
- sequence-content: "PQIVNYSPDCI [LDHB_Y128_K127N]"
  target-or-system: "FGFR3 (UniProt P22607)"
  group-label: "range C"
- sequence-content: "SLLKDYSPQLQ [OTC_Y345_T343K]"
  target-or-system: "FGFR3 (UniProt P22607)"
  group-label: "range C"
- sequence-content: "KFDLMYAKHAF [TUBA1A_Y399_R402H]"
  target-or-system: "FGFR3 (UniProt P22607)"
  group-label: "range A"
- sequence-content: "LDTFIYDAAVL [GRIN2A_Y730_A727T]"
  target-or-system: "FGFR3 (UniProt P22607)"
  group-label: "range C"
- sequence-content: "YSMGCYEFSLG [HMGCL_Y198_I200F]"
  target-or-system: "FGFR3 (UniProt P22607)"
  group-label: "range C"

Would you mind sorting DCAAIYGNEPD [AKR1A1_Y50_E55D] into the appropriate category? range C

Hi, small favor: classify EQKKFYNAMKN [SCN5A_Y1495_K1500N_YF] by its phosphorylation enrichment when you get a moment. range A

Which category does the recorded phosphorylation enrichment put LERFIYNREEL [HLA-DPB1_Y59_F64L_YF] in? range B

Please indicate the class for GCAGKYIAMVM [CYP19A1_Y441] based on its phosphorylation enrichment. range B

Field: class (phosphorylation enrichment) — entry: HEDPMYDIIRD [RP9_Y142] range B

Which phosphorylation enrichment category applies to RGEKQYLAAPL [ALOX12_Y295] here? range A

Place this sequence in its band: SDFFAYSPVQE [H6PD_Y449_R453Q_YF] range B

Category of PYSSPYENSLI [EPOR_Y489_N487S] , please. range A

In plain terms, what class is PIPAAYNRFDQ [CDC73_Y290_YF] ? range B

Which category does the recorded phosphorylation enrichment put DLAHKYHGGGG [HBB_Y146_A141D] in? range A

Could you place LLLLFCVVRFC [MPZ_Y177_Y177C_YF] in its proper category? Many thanks. range C

Assign a bin to DTSKMYIPHTD [EXPH5_Y782] range A

Note: place this sequence into its band. Item: GAAMLYYPSVS [GPR143_Y177] range C

Hello team, could you let me know which band the following sequence falls into: YKEQGYHRLPS [RIN1_Y681_P686S] range A

Lab note: which band did NTGGYYDLYGG [PTPN11_Y63_D61G] land in? range C

Class (by measured phosphorylation enrichment) for PSRKDYETYQP [CTNND2_Y1154] range B
